- MEASUREMENT TARGET: p53 Y220C (Homo sapiens, UniProt P04637, Y220C)
- TEST NAME: Luciferase Reporter Assay (Luc), p53 response element, NClH1299 cells with inducible p53 Y220C
- Format: cell-based
- STUDY CONDITIONS: Emax; luciferase reporter, NClH1299 inducible p53 Y220C, 6 hour
MEASUREMENT TYPE: Emax

> print(dat)
                                 cpd.smiles  measured.result
1  COc1ccc(C(=O)NC[C@H](C)O)cc1NCC#Cc1cc2c(N[C@@H]3CCN(C)C[C@@H]3F)cccn2c1SC(F)(F)F            > 90%
2  CNC(=O)c1cnc(OC)c(NCC#Cc2nn3c(N[C@@H]4CCNC[C@@H]4F)cccc3c2SC(F)(F)F)c1        80 to 90%
3  CN1CC[C@@H](Nc2cccn3c(SC(F)(F)F)c(C#CCNc4ccc(P(C)(C)=O)c5c4OCC5)cc23)[C@@H](F)C1            > 90%
4  CN1CC[C@@H](Nc2cccn3c(SC(F)(F)F)c(C#CCNc4ccc(C(N)=O)cc4)nc23)[C@@H](F)C1            > 90%

The measured Emax associated with `CN1CC[C@@H](Nc2cccn3c(SC(F)(F)F)c(C#CCNc4ccc(C(=O)NC[C@@H](O)CO)cc4)cc23)[C@@H](F)C1` reads > 90%

Item: `CNC(=O)c1ccc(OC)c(NCC#Cc2nn3c(N[C@@H]4C[C@H]5CC[C@H](N5)[C@@H]4F)cccc3c2SC(F)(F)F)c1` | Emax: 70 to 80%

Sample `[2H]C([2H])([2H])Oc1cc(C(=O)NC)ccc1NCC#Cc1cc2c(N[C@@H]3CCN(C)C[C@@H]3F)cccn2c1SC(F)(F)F` ; Emax observed: 80 to 90%

Memo: `CNC(=O)c1ccc(O[C@H]2C[C@@H](O)C2)c(NCC#Cc2cc3c(N[C@@H]4CCN(C)C[C@@H]4F)cccn3c2SC(F)(F)F)c1` , reported Emax: > 90%

====

- MEASUREMENT TARGET: p53 Y220C (Homo sapiens, UniProt P04637, Y220C)
- TEST NAME: Luciferase Reporter Assay (Luc), p53 response element, NClH1299 cells with inducible p53 Y220C
- Type: cell-based
- STUDY CONDITIONS: luciferase reporter, NClH1299 inducible p53 Y220C, 6 hour; read-out: Luc P53 Y220C AC50
MEASUREMENT TYPE: AC50

In the examples that follow, each entry is paired with its recorded AC50.
> print(dat)
                                 cpd.smiles  measurement.type  measured.result
1  CNC(=O)c1ccc(NCC#Cc2nc3c(N[C@@H]4CN(C)CC[C@@H]4F)cccn3c2SC(F)(F)F)c(OC)c1              AC50        < 0.75 µM
2  CNC(=O)c1ccc(NCC#Cc2nc3c(N[C@H]4Cc5cncn5C4)cccn3c2SC(F)(F)F)c(OC)c1              AC50      1.5 to 3 µM
3  CNC(=O)c1ccc(NCC#Cc2nc3c(N[C@H]4CCN(C)C(=O)C4)cccn3c2SC(F)(F)F)c(OC)c1              AC50   0.75 to 1.5 µM

For `CNC(=O)c1ccc(OC)c(NCC#Cc2cc3c(N[C@@H]4CN(C)C[C@@H]4F)nccn3c2SC(F)(F)F)c1` the compound record lists AC50 as < 0.75 µM

====

- MEASUREMENT TARGET: p53 Y220C mutant protein (amino acid residues 94-293) (Homo sapiens, UniProt P04637, Y220C)
- Construct: p53 Y220C mutant protein (amino acid residues 94-293)
- TEST NAME: Surface Plasmon Resonance (SPR) assay, Kd_kinetic
- Type: binding
- STUDY CONDITIONS: SPR, kinetic KD, p53 Y220C; read-out: SPR P53 Y220C KD kinetic
pKd: −log10 of the molar value.
MEASUREMENT TYPE: pKd

> print(dat)
                                 cpd.smiles  measured.result
1  CNC(=O)c1ccc(NCC#Cc2nc3c(N[C@@H]4CCN(C)C[C@@H]4F)cccn3c2SC(F)F)c(OC)c1           > 8.00
2  CNC(=O)c1ccc(OC)c(NCC#Cc2cc3c(N[C@@H]4CCN(C)C[C@@H]4F)nccn3c2SC(F)(F)F)c1           > 8.00
3  CNc1cc(NC2CCN(C)CC2)c2nc(C#CCNc3ccc(S(C)(=O)=O)cc3OC)c(CC(F)(F)F)n2c1     7.00 to 8.00

For this compound ( `CN1CC[C@@H](Nc2cccn3c(CC(F)(F)F)c(C#C[C@H](O)c4ccccc4)nc23)[C@@H](F)C1` ), measured pKd is 6.00 to 7.00

# pKd (compound: `CN1CC[C@@H](Nc2cccn3c(CC(F)(F)F)c(C#CC(C)(C)O)nc23)[C@@H](F)C1` ) is 6.00 to 7.00

The measured pKd associated with `CNC(=O)c1cnc(OC)c(NCC#Cc2nc3c(N[C@@H]4CCN(C)C[C@@H]4F)cccn3c2SC(F)(F)F)n1` reads > 8.00

So, `CNC(=O)c1ccc(NCC#Cc2nc3c(N[C@H]4CCN(C)C(=O)C4)cccn3c2SC(F)(F)F)c(OC)c1` ? Its pKd was > 8.00

What the record says about `COc1cc(S(=O)(=O)C2CC2)ccc1NCC#Cc1nc2c(N[C@@H]3CCN(C)C[C@@H]3F)cccn2c1CC(F)(F)F` : pKd is > 8.00

pKd reported for this compound `CNC(=O)c1ccc(F)c(NCC#Cc2nc3c(N[C@@H]4CCN(C)C[C@@H]4F)cccn3c2SC(F)(F)F)c1` : > 8.00

Looking up `CNC(=O)c1ccc(NCC#Cc2nc3c(N[C@@H]4CCN(C)C[C@@H]4F)cccn3c2SC(F)(F)F)c(OC)n1` , I found its pKd recorded as > 8.00

The compound identified as `CNC(=O)c1ccc(NCC#Cc2nc3c(N[C@@H]4CCN(C)C[C@@H]4F)cccn3c2CC(F)(F)F)c(OC(F)F)c1` registered its pKd at > 8.00

Reported pKd ( `CNC(=O)c1ccc(NCC#Cc2nc3c(N[C@@H]4CCN(C)C[C@@H]4F)cccn3c2C(F)(F)F)c(OC)c1` ) = 6.00 to 7.00

The reported pKd of the compound `COc1cc2c(cc1NCC#Cc1nc3c(N[C@@H]4CCN(C)C[C@@H]4F)cccn3c1CC(F)(F)F)CCNC2=O` was > 8.00

Record `CNC(=O)c1ccc(NCC#Cc2nc3c(N[C@@H]4CN(C)CC[C@@H]4F)cccn3c2SC(F)(F)F)c(OC)c1` . Reported pKd: > 8.00

====

- MEASUREMENT TARGET: p53 Y220C mutant protein (amino acid residues 94-293) (Homo sapiens, UniProt P04637, Y220C)
- Construct: p53 Y220C mutant protein (amino acid residues 94-293)
- TEST NAME: Thermal Shift Assay (TSA), dTM
- Assay type: binding
- STUDY CONDITIONS: thermal shift, 100 uM compound; read-out: TSA P53 Y220C dTM (100 uM)
MEASUREMENT TYPE: ΔTm at 100 µM

Solved cases (2 shown):
> print(dat)
                                 cpd.smiles  measurement.type  measured.result
1  CNC(=O)c1ccc(OC)c(NCC#Cc2nc3c(N[C@@H]4CNC[C@@H]4F)cccn3c2SC(F)(F)F)c1     ΔTm at 100 µM          ≥ 10 °C
2  CCOc1cc(C(=O)NC)ccc1NCC#Cc1nc2c(N[C@@H]3CCN(C)C[C@@H]3F)cccn2c1SC(F)(F)F     ΔTm at 100 µM          ≥ 10 °C

Consider `COc1cc(C(=O)N2CCOCC2)ccc1NCC#Cc1nc2c(N[C@@H]3CCN(C)C[C@@H]3F)cccn2c1SC(F)(F)F` . Its measured ΔTm at 100 µM is ≥ 10 °C

Measured ΔTm at 100 µM of `COc1cc(S(C)(=O)=O)ccc1NCC#Cc1nc2c(NC3CCN(C)CC3)cc(N)cn2c1CC(F)(F)F` : 1 to 5 °C

====

- MEASUREMENT TARGET: p53 Y220C (Homo sapiens, UniProt P04637, Y220C)
- TEST NAME: Luciferase Reporter Assay (Luc), p53 response element, NClH1299 cells with inducible p53 Y220C
- Assay type: cell-based
- STUDY CONDITIONS: Emax; luciferase reporter, NClH1299 inducible p53 Y220C, 6 hour
MEASUREMENT TYPE: Emax

get_value(item= CNC(=O)c1ccc(NCC#Cc2cc3c(N[C@@H]4CCN(C)C[C@@H]4F)cccn3c2SC(F)(F)F)c(OC2COC2)c1 [Example 405] , readout=Emax) returns > 90%

Memo: CCc1ncc(C(=O)NC)cc1NCC#Cc1nc2c(N[C@@H]3CCN(C)C[C@@H]3F)cccn2c1SC(F)(F)F [Example 273] , reported Emax: > 90%

The compound listed as CNC(=O)c1ccc(OC)c(NCC#Cc2nc3c(N[C@@H]4CNC[C@@H]4F)cccn3c2CC(F)(F)F)n1 [Example 263] shows Emax equal to 70 to 80%

Consider O=C(NC[C@H]1CCO1)c1ccc(NCC#Cc2cc3c(N[C@@H]4CCNC[C@@H]4F)cccn3c2SC(F)(F)F)cc1 [Example 365] . Its measured Emax is 80 to 90%

CN1CC[C@@H](Nc2cccn3c(SC(F)(F)F)c(C#CCNc4ccc(C(=O)N[C@H]5C[C@H](O)C5)cc4)cc23)[C@@H](F)C1 [Example 426] has a reported Emax of > 90%

The reported Emax of the compound CNC(=O)c1ccc(NCC#Cc2cc3c(N[C@@H]4CCNC[C@@H]4F)cccn3c2SC(F)(F)F)c(OC2COC2)c1 [Example 435] was > 90%

Lab note: COc1cc(P(C)(C)=O)ncc1NCC#Cc1cc2c(N[C@@H]3CCN(C)C[C@@H]3F)cccn2c1SC(F)(F)F [Example 439] gave Emax of > 90%

Lookup result for CNC(=O)c1ccc(NCC#Cc2cc3c(N[C@@H]4CCNC[C@@H]4F)nccn3c2SC(F)(F)F)c(OC)c1 [Example 295] ; measured Emax: > 90%

The measured Emax associated with CNC(=O)c1ccc(NCC#Cc2nc3c(N[C@H]4C[C@@H]5COC[C@@H](N5)[C@H]4F)cccn3c2SC(F)(F)F)c(OC)c1 [Example 279] reads 70 to 80%

GET /value?item= CNC(=O)c1ccc(OC)c(NCC#Cc2nn3c(N[C@H]4C[C@@H]5CC[C@@H](N5)[C@H]4F)cccc3c2SC(F)(F)F)c1 [Example 287] &field=Emax returns 80 to 90%

Note to self: Emax recorded for CNC(=O)c1cnc(OC)c(NCC#Cc2nc3c(N[C@@H]4C[C@H]5CC[C@@H]([C@@H]4F)N5C)cccn3c2SC(F)(F)F)c1 [Example 265] was > 90%

Lab note: measured Emax of COc1cc(S(C)(=O)=O)ccc1NCC#Cc1cc2c(N[C@@H]3CN(C)C[C@@H]3F)cccn2c1SC(F)(F)F [Example 339] was 80 to 90%

Lab note: measured Emax of CNS(=O)(=O)c1ccc(OC)c(NCC#Cc2cc3c(N[C@@H]4CCN(C)C[C@@H]4F)nccn3c2SC(F)F)c1 [Example 334] was 80 to 90%
